- Tested on: PPARg:RXRa DBDmut IVT, anti-RXR (DBD mutation: RXRa K156A/R161A, NR concentration 270 nM, RXRa partner concentration 90 nM)
- ASSAY_COMMENT: PBM binding z-score (relative to random genomic background probes); higher = stronger binding; sequences stand for … in GC…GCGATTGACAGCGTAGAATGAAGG
If the reported PBM binding z-score equals or exceeds 4, assign Y. If not, assign N.

Asked: # bool: PBM binding z-score of `ACTCGGAGGTCAAAGGTCAGAGCTACGCCAGTGA` >= 4
Given back: Y

Asked: Reported PBM binding z-score reaches at least 4 for `TCTAGTGGGTCAAAGGTCACACACTCGAAATGCG` ?
Given back: Y

Asked: Can `CCTACTGGGTCACGAAAGGTCATTGATTCAGTGA` be said to have PBM binding z-score at or above 4?
Given back: Y

Asked: Hello, I need to know if `GCTGCGAGGTCAACTGATGGTCAGCTAAAGCTCG` has measured PBM binding z-score not below 4. Thanks!
Given back: N

Asked: Check the entry `CCGAGAAGGTTACGAGGGGGCATTCAGTGCGAAT` : does PBM binding z-score equal or exceed 4?
Given back: N

Asked: Threshold query (PBM binding z-score >= 4) on `ATATGTAGTTTATCGGGTCATTCAGTTTGCGCAT`
Given back: N

Asked: Check if PBM binding z-score >= 4 (inclusive). Item: `CCTACTGGGTCAAAGGTCATTGATTCCAATGCTC`
Given back: Y

Asked: Could you tell me if the measured PBM binding z-score of `AGCGAAAGGTCGAGGTGAGTATAGAGAAAGGGAA` reaches 4 or more?
Given back: N

Asked: Determine whether measured PBM binding z-score meets or exceeds 4 for `GATATAGGGTCAGCTAGAGGCCAGAGTATGGAAA`
Given back: N

Asked: Is PBM binding z-score at least 4? Consider `CGTCAAAGGTCATAGGAGGTCAGTGAAGACAGAT`
Given back: Y

Asked: Hello, I need to know if `AATACAGGGTCATCGTAGGTCAGAGTACGCACAG` has measured PBM binding z-score not below 4. Thanks!
Given back: N

Asked: Confirm if PBM binding z-score reported for the sequence `GGAACGAGGTCAAGTTGATAGCAGAGTTTGATGG` is 4 or above.
Given back: Y

Asked: Is it the case that `CGTCCGAGGTCAAGGTCAGTGAAAGAGACTCGAA` has PBM binding z-score reaching or exceeding 4?
Given back: Y

Asked: Reported PBM binding z-score reaches at least 4 for `GCTTACGGGTCAAAGGTCATAGCATGAATAGAAT` ?
Given back: Y

Asked: Exam item: decide whether the reported PBM binding z-score for `ACTCGGTGGACAAAGGTCAGAGCTACGCCAGTGA` is at least 4.
Given back: N

Asked: Tell me whether PBM binding z-score is at least 4 here: `CGTCCAAGGTTAAGGTCAGTGAAAGAGACTCGAA`
Given back: N

Asked: Does the sequence `CGTCCAAGGTCAATGCTAGATCAGTGAAAGCATT` have recorded PBM binding z-score that is 4 or more?
Given back: N

Asked: Threshold query (PBM binding z-score >= 4) on `CGTCAAAGATCAAGGTAACGTAACAGAAAGCAGC`
Given back: N
